Each recorded value in this set is attributed to paper PMC3794980.

- STUDY_SYSTEM: DRB1*0802 (Homo sapiens, UniProt P01903+P01911, A100R/A103L/A169T/F76Y/H45Y/I96F/K41T/L162R/M171V/P40S/Q125H/Q178H/Q39Y/Q99D/R218S/R42G/S66Y/V115G/W38E)
- TEST_SUMMARY: biochemical
Overview of reported pIC50 across a group of compounds:
By convention, pIC50 is the negative base-10 log of a molar concentration.

CC[C@H](C)[C@H](NC(=O)[C@H](C)NC(=O)[C@H](CC(N)=O)NC(=O)[C@H](C)NC(=O)[C@H](CC(C)C)NC(=O)[C@H](CCC(N)=O)NC(=O)[C@H](CCCNC(=N)N)NC(=O)[C@H](Cc1c[nH]cn1)NC(=O)[C@H](CCC(=O)O)NC(=O)[C@@H]1CCCN1)C(=O)N[C@@H](Cc1ccccc1)C(=O)N[C@@H](CCCCN)C(=O)N[C@@H](CC(C)C)C(=O)N[C@H](C(=O)N[C@@H](Cc1ccc(O)cc1)C(=O)N[C@@H](CCC(N)=O)C(=O)N[C@@H](CC(N)=O)C(=O)O)[C@@H](C)O | 6.27

Look at this compound and give its reported pIC50. CSCC[C@H](NC(=O)[C@@H](NC(=O)[C@H](CCC(N)=O)NC(=O)[C@H](Cc1ccccc1)NC(=O)[C@H](CC(N)=O)NC(=O)[C@H](CCCCN)NC(=O)[C@@H]1CCCN1C(=O)[C@@H](N)CC(N)=O)[C@@H](C)O)C(=O)N1CCC[C@H]1C(=O)NCC(=O)N[C@H](C(=O)N[C@@H](Cc1ccccc1)C(=O)N[C@@H](CCC(N)=O)C(=O)N[C@H](C(=O)N[C@H](C(=O)O)[C@@H](C)O)[C@@H](C)O)[C@@H](C)O
6.76

---

- STUDY_SYSTEM: DRB5*0101 (Homo sapiens, UniProt P01903+Q30154)
- TEST_SUMMARY: biochemical
- Format: binding
Overview of reported IC50 across a group of compounds:
Please state the figure in µM; there is no need to write the unit.

CC(C)C[C@H](NC(=O)[C@H](CCCCN)NC(=O)CNC(=O)[C@H](CC(C)C)NC(=O)[C@@H](N)Cc1c[nH]cn1)C(=O)N[C@@H](CCC(=O)O)C(=O)N[C@@H](CC(C)C)C(=O)N[C@@H](CC(=O)O)C(=O)N[C@@H](Cc1ccccc1)C(=O)N[C@@H](CC(N)=O)C(=O)N[C@@H](Cc1ccc(O)cc1)C(=O)N[C@@H](CS)C(=O)N[C@@H](CCC(=O)O)C(=O)NCC(=O)N[C@H](C(=O)O)[C@@H](C)O | 9.47

Look at this compound and give its reported IC50. CC[C@H](C)[C@H](NC(=O)[C@@H](NC(=O)[C@H](CCCNC(=N)N)NC(=O)[C@H](CCC(=O)O)NC(=O)[C@@H]1CCCN1C(=O)CNC(=O)[C@H](CC(=O)O)NC(=O)[C@@H](NC(=O)[C@H](CC(C)C)NC(=O)[C@@H](NC(=O)[C@@H](NC(=O)[C@@H]1CCCN1C(=O)[C@H](CCCCN)NC(=O)[C@H](CC(C)C)NC(=O)[C@@H](N)CS)C(C)C)[C@@H](C)CC)[C@@H](C)O)C(C)C)C(=O)O
13.2
